Target: EGFR V769_D770insASV in Ba/F3 cell lines (Homo sapiens, UniProt P00533, INS769ASV)
Test: […]-GLO cell viability assay, Ba/F3 cells with EGFR V769_D770insASV
measure: IC50 (nM)
Please state the figure in nM; there is no need to write the unit.

stdin: Could you share which IC50 value was measured for C=CC(=O)Nc1cc(Nc2nccc(-c3cnc4c(C)cccn34)n2)c(OC)cc1N(C)CCN(C)C ?
stdout: 73

* * *

Target: EGFR L861Q (Homo sapiens, UniProt P00533, L861Q)
Sequence (P00533 25-1210 L861Q): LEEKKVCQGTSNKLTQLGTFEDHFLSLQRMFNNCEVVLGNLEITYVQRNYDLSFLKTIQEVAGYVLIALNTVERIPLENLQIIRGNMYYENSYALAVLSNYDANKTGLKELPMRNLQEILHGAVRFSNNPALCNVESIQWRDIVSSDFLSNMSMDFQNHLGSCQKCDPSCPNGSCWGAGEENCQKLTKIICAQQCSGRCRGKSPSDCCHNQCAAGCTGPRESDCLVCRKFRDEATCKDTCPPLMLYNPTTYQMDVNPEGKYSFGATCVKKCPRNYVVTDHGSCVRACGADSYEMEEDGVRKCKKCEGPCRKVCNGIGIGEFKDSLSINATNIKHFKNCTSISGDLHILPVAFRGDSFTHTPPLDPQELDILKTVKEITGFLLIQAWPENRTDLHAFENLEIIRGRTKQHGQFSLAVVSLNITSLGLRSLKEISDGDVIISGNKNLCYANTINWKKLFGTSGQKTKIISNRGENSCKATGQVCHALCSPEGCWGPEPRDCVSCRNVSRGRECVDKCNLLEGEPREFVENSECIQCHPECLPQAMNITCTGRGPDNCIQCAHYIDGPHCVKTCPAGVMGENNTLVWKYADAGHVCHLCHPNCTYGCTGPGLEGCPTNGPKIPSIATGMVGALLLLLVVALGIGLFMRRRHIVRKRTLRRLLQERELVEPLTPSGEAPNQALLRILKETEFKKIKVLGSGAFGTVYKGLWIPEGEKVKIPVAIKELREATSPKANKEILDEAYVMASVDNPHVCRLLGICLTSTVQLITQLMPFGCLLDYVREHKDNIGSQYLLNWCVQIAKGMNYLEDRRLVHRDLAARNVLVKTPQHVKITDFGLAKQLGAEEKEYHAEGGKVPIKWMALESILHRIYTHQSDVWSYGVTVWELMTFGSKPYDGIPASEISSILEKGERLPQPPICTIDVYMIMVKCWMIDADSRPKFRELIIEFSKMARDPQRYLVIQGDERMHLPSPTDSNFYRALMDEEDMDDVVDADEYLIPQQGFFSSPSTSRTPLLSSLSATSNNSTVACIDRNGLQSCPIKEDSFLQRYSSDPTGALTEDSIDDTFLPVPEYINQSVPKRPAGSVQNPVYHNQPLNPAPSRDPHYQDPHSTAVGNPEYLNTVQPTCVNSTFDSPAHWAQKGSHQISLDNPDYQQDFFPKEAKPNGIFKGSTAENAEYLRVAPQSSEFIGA
Assay: HTFR KINEASE-TK kit (Cisbio) inhibition of EGFR mutant L861Q
measure: IC50 (nM)
Please state the figure in nM; there is no need to write the unit.

stdin: Could you share which IC50 value was measured for C=CC(=O)Nc1cc(Nc2nccc(-c3cnc4c(C)cccn34)n2)c(OC)cc1N(C)CCN(C)C [A13] ?
stdout: 0.36

* * *

Experiment: Pharmacokinetics in the xenograft mouse model, single oral dose
Type: in vivo, Balb/c Mice
Conditions: Balb/c, mouse, blood; 80 mg/kg single oral dose
measure: half-life
Reply with the number and its unit after it.

stdin: Could you share which half-life value was measured for C=CC(=O)Nc1cc(Nc2nccc(-c3cnc4c(C)cccn34)n2)c(OC)cc1N(C)CCN(C)C [A13] ?
stdout: 1.7 h

* * *

Experiment: Pharmacokinetics in the xenograft mouse model, single oral dose
Assay type: in vivo, Balb/c Mice
Settings: Balb/c, mouse, blood; 80 mg/kg single oral dose
measure: Cmax (ng/mL)
Please state the figure in ng/mL; there is no need to write the unit.

stdin: Could you share which Cmax value was measured for C=CC(=O)Nc1cc(Nc2nccc(-c3cnc4c(C)cccn34)n2)c(OC)cc1N(C)CCN(C)C [A13] ?
stdout: 1380

* * *

Biological target: EGFR D770_N771insNPG (Homo sapiens, UniProt P00533, INS770NPG)
Sequence (P00533 with tags, fused parts or gaps INS770NPG): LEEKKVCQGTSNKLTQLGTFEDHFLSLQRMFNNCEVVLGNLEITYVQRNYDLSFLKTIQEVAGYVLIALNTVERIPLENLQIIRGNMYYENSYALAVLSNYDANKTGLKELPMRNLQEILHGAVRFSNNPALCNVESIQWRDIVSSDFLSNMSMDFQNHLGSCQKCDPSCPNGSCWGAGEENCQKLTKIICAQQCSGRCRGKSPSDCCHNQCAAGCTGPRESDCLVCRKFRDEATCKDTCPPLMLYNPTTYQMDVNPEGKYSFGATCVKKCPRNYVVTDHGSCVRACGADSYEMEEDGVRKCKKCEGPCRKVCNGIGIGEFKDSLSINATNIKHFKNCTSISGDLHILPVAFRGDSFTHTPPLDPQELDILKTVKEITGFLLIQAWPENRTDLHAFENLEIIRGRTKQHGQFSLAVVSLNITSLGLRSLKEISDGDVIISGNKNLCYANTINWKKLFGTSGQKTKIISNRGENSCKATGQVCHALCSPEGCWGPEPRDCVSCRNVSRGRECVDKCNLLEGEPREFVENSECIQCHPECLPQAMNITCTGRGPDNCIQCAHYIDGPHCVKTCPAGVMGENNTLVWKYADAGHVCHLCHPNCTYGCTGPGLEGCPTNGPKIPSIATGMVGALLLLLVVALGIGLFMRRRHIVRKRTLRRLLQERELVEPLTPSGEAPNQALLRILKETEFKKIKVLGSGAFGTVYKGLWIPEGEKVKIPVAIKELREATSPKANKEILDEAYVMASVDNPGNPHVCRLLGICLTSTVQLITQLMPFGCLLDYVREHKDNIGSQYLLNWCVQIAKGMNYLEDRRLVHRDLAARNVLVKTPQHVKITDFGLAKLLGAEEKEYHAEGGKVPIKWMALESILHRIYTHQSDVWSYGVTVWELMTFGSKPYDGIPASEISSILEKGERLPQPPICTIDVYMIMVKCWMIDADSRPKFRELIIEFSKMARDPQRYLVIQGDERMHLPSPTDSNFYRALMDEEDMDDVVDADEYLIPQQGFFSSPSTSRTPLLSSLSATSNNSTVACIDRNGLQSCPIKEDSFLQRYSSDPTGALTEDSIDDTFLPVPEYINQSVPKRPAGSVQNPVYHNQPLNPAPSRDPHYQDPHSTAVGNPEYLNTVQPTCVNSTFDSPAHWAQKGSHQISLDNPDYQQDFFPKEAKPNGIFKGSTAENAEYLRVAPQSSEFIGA
Assay: HTFR KINEASE-TK kit (Cisbio) inhibition of EGFR mutant D770_N771insNPG
measure: pIC50
Lab note: report pIC50 as minus log10 of the concentration in molar units, number only.

stdin: Could you share which pIC50 value was measured for C=CC(=O)Nc1cc(Nc2nccc(-c3cnc4c(C)cccn34)n2)c(OC)cc1N(C)CCN(C)C ?
stdout: 9.38

* * *

Biological target: EGFR L861Q in Ba/F3 cell lines (Homo sapiens, UniProt P00533, L861Q)
Sequence (P00533 25-1210 L861Q): as the sequence (P00533 25-1210 L861Q) above
Assay: […]-GLO cell viability assay, Ba/F3 cells with EGFR L861Q
measure: pIC50
Lab note: report pIC50 as minus log10 of the concentration in molar units, number only.

stdin: Could you share which pIC50 value was measured for C=CC(=O)Nc1cc(Nc2nccc(-c3cnc4c(C)cccn34)n2)c(OC)cc1N(C)CCN(C)C ?
stdout: 8.30

* * *

Biological target: EGFR D770_N771insSVD in Ba/F3 cell lines (Homo sapiens, UniProt P00533, INS770SVD)
Assay: […]-GLO cell viability assay, Ba/F3 cells with EGFR D770_N771insSVD
measure: IC50
Reply with the number and its unit after it.

stdin: Could you share which IC50 value was measured for C=CC(=O)Nc1cc(Nc2nccc(-c3cnc4c(C)cccn34)n2)c(OC)cc1N(C)CCN(C)C [A13] ?
stdout: 0.029 µM

* * *

Target: EGFR V769_D770insGE (Homo sapiens, UniProt P00533, INS769GE)
Sequence (P00533 with tags, fused parts or gaps INS769GE): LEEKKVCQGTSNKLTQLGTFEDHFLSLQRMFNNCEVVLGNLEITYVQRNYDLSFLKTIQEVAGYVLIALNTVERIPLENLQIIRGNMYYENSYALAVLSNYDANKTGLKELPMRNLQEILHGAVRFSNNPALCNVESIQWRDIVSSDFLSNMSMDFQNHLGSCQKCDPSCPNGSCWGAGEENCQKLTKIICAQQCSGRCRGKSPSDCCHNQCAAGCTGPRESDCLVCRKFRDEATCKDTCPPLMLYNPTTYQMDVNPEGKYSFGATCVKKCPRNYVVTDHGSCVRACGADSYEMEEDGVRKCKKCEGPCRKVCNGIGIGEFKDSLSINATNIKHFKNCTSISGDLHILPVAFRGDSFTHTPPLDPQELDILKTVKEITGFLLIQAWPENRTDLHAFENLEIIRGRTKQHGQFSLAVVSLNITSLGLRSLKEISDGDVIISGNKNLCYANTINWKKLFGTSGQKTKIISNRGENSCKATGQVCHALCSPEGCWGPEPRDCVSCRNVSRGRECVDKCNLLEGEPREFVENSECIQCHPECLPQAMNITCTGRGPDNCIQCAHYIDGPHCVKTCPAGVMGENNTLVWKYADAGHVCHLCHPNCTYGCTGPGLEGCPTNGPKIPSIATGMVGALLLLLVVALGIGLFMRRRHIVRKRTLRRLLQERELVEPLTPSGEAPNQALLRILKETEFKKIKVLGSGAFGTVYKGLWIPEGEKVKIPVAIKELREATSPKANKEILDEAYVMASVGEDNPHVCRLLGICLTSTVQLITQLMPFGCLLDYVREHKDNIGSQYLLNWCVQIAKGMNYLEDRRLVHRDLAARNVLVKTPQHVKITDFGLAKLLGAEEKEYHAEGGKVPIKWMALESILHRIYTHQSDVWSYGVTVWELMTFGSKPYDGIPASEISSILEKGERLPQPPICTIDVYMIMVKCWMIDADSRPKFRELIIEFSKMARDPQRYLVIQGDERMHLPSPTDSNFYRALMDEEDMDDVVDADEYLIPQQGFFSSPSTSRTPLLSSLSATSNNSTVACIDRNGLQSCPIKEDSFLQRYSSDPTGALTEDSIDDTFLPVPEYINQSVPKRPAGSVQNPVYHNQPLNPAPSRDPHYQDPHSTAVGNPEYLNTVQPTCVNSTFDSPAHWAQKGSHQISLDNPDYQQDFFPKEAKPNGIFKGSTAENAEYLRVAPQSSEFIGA
Experiment: HTFR KINEASE-TK kit (Cisbio) inhibition of EGFR mutant V769_D770insGE
measure: pIC50
Lab note: report pIC50 as minus log10 of the concentration in molar units, number only.

stdin: Could you share which pIC50 value was measured for C=CC(=O)Nc1cc(Nc2nccc(-c3cnc4c(C)cccn34)n2)c(OC)cc1N(C)CCN(C)C ?
stdout: 9.21

# credit: patent US20240226101A1
